Values were extracted from the DeepSol protein solubility set.

assay: soluble on expression in E. coli; label from the status in PepcDB or PDB records
MEASURED PARAMETER: soluble on expression in E. coli

Some solved cases for reference:
MKKSNIYIGEVIKQVIAEKQVTKAELARRLGVKPQSVDYLLTRKSIDTDTLYSLSLALDYDFAVLYSIKKEHALATDEESPFKVGNAKISLEIELRPDEMLKLNLKQKIADLLEGKGK
not soluble
MSLESGELIGACEFMKDRLYFATLRNRPKSTVNTHYFSIDEELVYENFYADFGPLNLAMVYRYCCKLNKKLKSYSLSRKKIVHYTCFDQRKRANAAFLIGAYAVIYLKKTPEEAYRALLSGSNPPYLPFRDASFGNCTYNLTILDCLQGIRKGLQHGFFDFETFDVDEYEHYERVENGDFNWIVPGKFLAFSGPHPKSKIENGYPLHAPEAYFPYFKKHNVTAVVRLNKKIYEAKRFTDAGFEHYDLFFIDGSTPSDNIVRRFLNICENTEGAIAVHCKAGLGRTGTLIACYVMKHYRFTHAEIIAWIRICRPGSIIGPQQHFLEEKQASLWVQGDIFRSKLKNRPSSEGEGHHHHHH
soluble
MNALSGLQTHEDSTCCNRFCRPDERSASGNSTLLRFGGFFADQTYLQVTRLMQRIHYLHQRLVIDGFVRSEEDGGVFLAFGLEHHHHHH
not soluble
MCAHEGKQYKNDTTFISQGSFRMKCVTFKNLTSTLEVISCITPAGVEISIGTQLEEGDKVFECTPGNVTLKSTPGQTGKCRGVYSVGDTWVEDSFRLLCEPYGKVNLKSCISKEGVEIPLGEARRVPAGYAMECVTVNGNVALQTAKTFDCETGTGEIKKFGDTWNEGNFVRRCANYGVSAIIGCYADGVGSIGLNQNMTSGDFLYMCINQNEQFKFRTLKAT
not soluble
APAILLVDDEPHSLAAMKLALEDDFDVLTAQGAEAAIAILEEEWVQVIICDQRMPGRTGVDFLTEVRERWPETVRIIITGYTDSASMMAAINDAGIHQFLTKPWHPEQLLSSARNAARMFTLARENERLSLEMRLLERP
soluble

Ask: Param item = MNNSSFFGNRLKEERKKLKMTQAEIAEKCGVSGRMWGDYERGISQPKAELFFQFEKVGIDVQYVMHGRRGETAVMPSETLNAEEQELLVLFREAAAADREMILMVARRAEKKAQTALGKVSNG ; retrieve measured soluble on expression in E. coli.
Reply: not soluble

Ask: Try this sequence too: MAHHHHHHMRLIESRQMHEWDNAADSSLDVDHPEDAPFGQGPERQQQRDGKSNLGDQSDYGEEARTEATWLWRFGFPRTEDEKAYVASHLWSKGLRRRVAQLTDVRRRGRPGEFVIGVPEGLQHLREQRERLERERFGGVKVFPPQNA
Reply: not soluble

Ask: Try this sequence too: LPRELRPLMKKPLGILYRGKGRDTIEKFAGELSSPTKLISVGDVTTFHLLEAGIIPDICIVDDRTKRKPVSSDVSVRNRDKVYEEVSVDNPAGIITDELIRTLCEAFASEKLLRIFVRGEEDLATLPVILLAPPGSVVLYGQPDEGVVFVEVTEKKKEEIRALFEKLISK
Reply: not soluble

###

experiment: soluble on expression in E. coli; label from the status in PepcDB or PDB records
MEASURED PARAMETER: soluble on expression in E. coli

Some solved cases for reference:
MHLLPELASHHAVSIPELLVSRDERQARQHAWLKHHPVPLVSFTVVAPGPIKDSEVTRRIFNHRVTALRALATKQGWQIQEQAALVSASGPEGMLSIAAPARDLKLATIELEHSHPLGRLWDIDVLTPEGEILSRRDYSLRLAAACCASKAQPSARVEKPIN
not soluble
MLPRAEQKQQTRRALLDAAHQLMESGRGFGSLSLREVARTAGIVPTGFYRHFEDMDQLGLALVIEVGQTFRETIRLVRHNEFAMGGLIRASVKIFLERVAANRSQFLFLAREQYGGSLKVRQALGALREGISADLTADLAKMPKWQHLNADALSIIADLVVKSVFAMLPELIDPPPASLAPHLTPQAKITQQLRFIFIGARHWRGLGTHD
not soluble
VLTEMRADARVAILEELSEAELNFTLAKLDNLSLIEWAESLPDDIFSLALQLISRDELDLYDDAKQYDDDEVGHWADRKIATLPFNVSVGRAKKLLKTNLFESHQYMHLINRAHKFHGIVQYTDILTADDSVKINTLKLEDCLVLNVHQPLSESIEAIEHSAVPSVAIVDDENTLIGQLDWQFAINTQREIYETRLMAGTGMDEGDDLFSPIIKSSKKRGV
not soluble
MSLGTQEDVLSLISGGFDSGVSSYLHIKRGSKVHYCFFNLGGPAHEIGVKQTAYYLWQKYGSSAKVRFIAIDFAPVVAEILEKIDDGQMGVVLKRMFMRTAGMVAEKFGIQALVTGEALGQVSSQTLTNLRHIDNVTDTLILRPLINWDKEDIIRLAREIGTEDFAKTMPEFCGVISKSPTVKAVKEKLEEEEAKFDFALLDQVVYNARQIDIRDIGKESLEKAPEVELVNSAEEGNAVVLDIRSPDEEDESPLEIVGVEVKHLPFYKLATQFGDLDQSKTYLLYCSRGVMSRLQALYLQEQGFNNVKVYREGHHHHHH
not soluble
MMTRKKELAIALSKLKGFKNPKVWLEQYRTPGNAASELLWLAYSLGDIEGKVVADLGAGTGVLSYGALLLGAKEVICVEVDKEAVDVLIENLGEFKGKFKVFIGDVSEFNSRVDIVIMNPPFGSQRKHADRPFLLKAFEISDVVYSIHLAKPEVRRFIEKFSWEHGFVVTHRLTTKIEIPLQFFFHRKKLERITVDIYRFSKVINSR
soluble
MGSDKIHHHHHHALGVVDEVHAGKEIGLQIYSLSQELYKGDVAANLRKVKDMGYSKLELAGYGKGAIGGVPMMDFKKMAEDAGLKIISSHVNPVDTSISDPFKAMIFKYSKEVTPKIMEYWKATAADHAKLGCKYLIQPMMPTITTHDEAKLVCDIFNQASDVIKAEGIATGFGYHNHNMEFNRVATKEQQEKVKGNPFAAFMKVGDQIYDLMLKDTDPSKVYFEMDVYWTVMGQNDPVEYMQKHPDRIKVLHIKDRAVFGQSGMMNFEMIFKQMYANGIKDYFVELEQMPDGRTQFAGVKDCADYLIKAPFVK
not soluble
STAIDGQGKDQVIFVTKEEHETPSTVKQEEEDTNEDPKGKGLILPTGEINWDCPCLGGMASGVCGEQFKSAFTCFHFSQEEVKGSDCLEQFISMQECFHQHPELFPQDNNDLQTADPDQEHSSSISDFTTNKESDSLPTETDEIPTQLPVVS
soluble
MGSDKIHHHHHHGQNVHPNLPWIDISGQRERQVTIAPGRPDLYNGHPTTVMMDDHKTILCTWSYGHGGKASFIAESKDAGLTWKNGKTPADWQTMSNCPSIYKLTDKQGKERVFVFSAWPDMPMTYSEDGGKSWSPVRSLNKPCVMAFSSIVKLKNGDYLGLYHRGLNDRDRPPLTLWQSVSHDGGLTWSESVKVGEMEGRSPCEPCVFRAPDGKRLVCVARENNRVGNSLMMFSDDEGTTWSPLQKTPWGLTGDRHVIKFTPDGRMIAVFRDMAPNSPTKGHFVAWVGNYKDLLEGTSGQYKIKLLHSYAGSDCGYPGLEILPDGTIVAITYVKMRPGPEQHSIVGVRFKLEETDKMLY
not soluble
MNTQYLQYVREQLMVATADLSGETKGQLLAWLENAQFDTKNYPRKKQRIWDEETESWITLNNPPIPGKQSLAKGSAIPLVKPVEYSTASWRRAVLSLDEHYKAWLLWNYSENTCWEHQVEITQWGWSAFAAQLDGKKMAGKTQERLRALIWLAAQDVKSELAGREVYQYKELAGLVGVSEKNWSETFTRHWLTMRAIFLRLDQASLLSVSESRSEQVAFNLYALN
not soluble
LQASVNLFPTISVAPSADTSSERSIYKARFLENVAAAETEKQVALAQGRAETLAGAMPNEAGGHPDARQLWDSPETAPAARTPQSPAPCVLLRAQRSLAPEPKEPLIPASPKAEPIWELPTRAPRLSIGDLDFSDLGEDEDQDMLNVESVEAGKDI
not soluble

Ask: Param item = MNGIIVDKEKVHPGMPDVVKDAKIALLDAPLEIKKPEFDTNLRIEDPSMIQKFLAQEENMLREMVDKIKSVGANVVITQKGIDDMAQHYLSRAGIYAVRRVKKSDMDKLAKATGASIVSTIDEISSSDLGTAERVEQVKVGEDYMTFVTGSKNHHHHHH ; retrieve measured soluble on expression in E. coli.
Reply: soluble

Ask: Try this sequence too: MFFVSLLFEFFDSIFEIAVMLGFEMLCRMAADSSVLHCLVAAYMGLGKLPATTEKHTYAQQDKSQSDQQKRSQKNCSHLLLYLRNTKVRFSYPQRSTINNS
Reply: not soluble

Ask: Try this sequence too: MGLFNNFKFKYTRAQLEIFRFSFCLLAPVAVMYYIGTDTDKKLNVPGFWPDPATLNQIPKEPYEIKAELARMKKERLEKRLRLEKKIQEEFGLDLEEEKEKIKRDLALKKG
Reply: soluble
